Consider the following compounds; for each one, report its T/C.
Tested on: BDF1 mice, intracerebral B16 melanoma, median survival T/C
Test: NCI In Vivo Anticancer Drug Screen. Data for tumor model B16 Melanoma (intracerebral) in B6D2F1 (BDF1) mice
Conditions: endpoint: median survival time; dose: 6.25 mg/kg/injection; schedule: Q01DX009 (ip); vehicle: other; higher = longer survival
Toxic doses and inconclusive results are not listed.

Qu. Item CN(C)N=Nc1cccc2c1N(C)c1ccc(Cl)cc1S2 has what recorded T/C?
Ans. 103 % of control

Qu. Item Cc1ccc2c(c1)Sc1ccc(N=NN(C)C)cc1N2C has what recorded T/C?
Ans. 101 % of control

Qu. Item CN(C)N=Nc1ccc2c(c1)N(C)c1ccc(F)cc1S2 has what recorded T/C?
Ans. 90 % of control

Qu. Item CN(C)N=Nc1ccc(Cl)c2ncccc12 has what recorded T/C?
Ans. 97 % of control

Qu. Item CN(C)N=Nc1ccc2c(c1)N(C)c1ccc(Cl)cc1S2 has what recorded T/C?
Ans. 97 % of control

Qu. Item CN(C)N=Nc1ccnc2ccc(Br)cc12 has what recorded T/C?
Ans. 102 % of control

Qu. Item CN(C)N=Nc1ccnc2ccc(I)cc12 has what recorded T/C?
Ans. 110 % of control

Qu. Item CN(C)N=Nc1ccnc2c(Cl)cccc12 has what recorded T/C?
Ans. 116 % of control

Qu. Item CN(C)N=Nc1cccc2c1N(C)c1ccc(F)cc1S2 has what recorded T/C?
Ans. 109 % of control
